For each of the compounds below, state its inhibition.
- experimental.target: Human immunodeficiency virus type 1 reverse transcriptase (Human immunodeficiency virus 1)
- test.summary: Inhibition of HIV-1 reverse transcriptase at 20 ug after 1 hr by colorimetry
Return type: number; implicit unit %.

Ask: Which inhibition reading was recorded for the compound O=C1/C(=C\c2ccccc2)N=C(c2ccccc2)N1Cc1ccncc1 ?
Result: 54.4

Ask: Which inhibition reading was recorded for the compound COc1cc(/C=C2/N=C(C)N(Cc3ccncc3)C2=O)cc(OC)c1OC ?
Result: 67

Ask: Which inhibition reading was recorded for the compound CC1=N/C(=C/c2ccccc2)C(=O)N1Cc1ccncc1 ?
Result: 60.7

Ask: Which inhibition reading was recorded for the compound COc1cc(/C=C2/N=C(c3ccccc3)N(Cc3ccncc3)C2=O)ccc1O ?
Result: 50.2

Ask: Which inhibition reading was recorded for the compound CC1=N/C(=C/c2ccc(N(C)C)cc2)C(=O)N1Cc1ccncc1 ?
Result: 58.1

Ask: Which inhibition reading was recorded for the compound O=C1/C(=C\c2ccc(Cl)cc2Cl)N=C(c2ccccc2)N1Cc1ccncc1 ?
Result: 70

Ask: Which inhibition reading was recorded for the compound O=C1/C(=C\c2ccco2)N=C(c2ccccc2)N1Cc1ccncc1 ?
Result: 62.5

Ask: Which inhibition reading was recorded for the compound C/C=C1/N=C(C)N(Cc2ccncc2)C1=O ?
Result: 64.3

Ask: Which inhibition reading was recorded for the compound COc1ccc(/C=C2/N=C(C)N(Cc3ccncc3)C2=O)cc1 ?
Result: 59.2

Ask: Which inhibition reading was recorded for the compound O=C1/C(=C\c2ccc(Cl)cc2)N=C(c2ccccc2)N1Cc1ccncc1 ?
Result: 47

Ask: Which inhibition reading was recorded for the compound CC1=N/C(=C/c2c[nH]c3ccccc23)C(=O)N1Cc1ccncc1 ?
Result: 58.7
